Parameter: pKi. Scope: all listed entries.
Target: Delta-type opioid receptor (Homo sapiens)
Test: Displacement of [125I]IOXY from human recombinant delta opioid receptor expressed in CHO cells
Assay type: cell-based
pKi: −log10 of the molar value.

[[record]]
molecule_smiles = "COC(=O)[C@@H]1C[C@H](NS(C)(=O)=O)C(=O)[C@H]2[C@@]1(C)CC[C@H]1C(=O)O[C@H](c3ccoc3)C[C@]21C"
reported_result = "< 5.00"


Looking for the measured pKi of `COC(=O)[C@@H]1C[C@H](OC(=O)c2ccc([N+](=O)[O-])cc2)C(=O)[C@H]2[C@@]1(C)CC[C@H]1C(=O)O[C@H](c3ccoc3)C[C@]21C` , can you help?
< 5.00

Now give it for `COC(=O)[C@@H]1C[C@H](NS(=O)(=O)c2ccccc2)C(=O)[C@H]2[C@@]1(C)CC[C@H]1C(=O)O[C@H](c3ccoc3)C[C@]21C` too.
< 5.00

Okay, and `COC(=O)[C@@H]1C[C@H](OC(=O)c2ccc(OC)cc2)C(=O)[C@H]2[C@@]1(C)CC[C@H]1C(=O)O[C@H](c3ccoc3)C[C@]21C` ?
5.73

Now consider `COC(=O)[C@@H]1C[C@H](OC(=O)c2cc3ccccc3o2)C(=O)[C@H]2[C@@]1(C)CC[C@H]1C(=O)O[C@H](c3ccoc3)C[C@]21C` and answer again.
6.24

Note, next up: `COC(=O)[C@@H]1C[C@H](NC(=O)c2ccccc2)C(=O)[C@H]2[C@@]1(C)CC[C@H]1C(=O)O[C@H](c3ccoc3)C[C@]21C`
6.09

Would you kindly repeat that for `COC(=O)[C@@H]1C[C@H](OC(=O)c2ccc3ccccc3c2)C(=O)[C@H]2[C@@]1(C)CC[C@H]1C(=O)O[C@H](c3ccoc3)C[C@]21C` ?
< 5.00

Also `COC(=O)[C@@H]1C[C@H](OC(=O)c2cccc([N+](=O)[O-])c2)C(=O)[C@H]2[C@@]1(C)CC[C@H]1C(=O)O[C@H](c3ccoc3)C[C@]21C` , if possible.
< 5.00

And for `COC(=O)[C@@H]1C[C@H](OC(=O)C2CCCCC2)C(=O)[C@H]2[C@@]1(C)CC[C@H]1C(=O)O[C@H](c3ccoc3)C[C@]21C` ?
< 5.00

Query `COC(=O)[C@@H]1C[C@H](OC(=O)c2cccc3ccccc23)C(=O)[C@H]2[C@@]1(C)CC[C@H]1C(=O)O[C@H](c3ccoc3)C[C@]21C` next
< 5.00

Same for `COC(=O)[C@@H]1C[C@H](OC(=O)c2ccccc2[N+](=O)[O-])C(=O)[C@H]2[C@@]1(C)CC[C@H]1C(=O)O[C@H](c3ccoc3)C[C@]21C`
< 5.00

---

Organism: Homo sapiens
Experiment: Selectivity for human recombinant kappa opioid receptor over human recombinant mu opioid receptor
measured.parameter: Ratio Ki

Check out these entries, answers already filled in.
[[record]]
molecule_smiles = "COC(=O)[C@@H]1C[C@H](OC(=O)C2CCCCC2)C(=O)[C@H]2[C@@]1(C)CC[C@H]1C(=O)O[C@H](c3ccoc3)C[C@]21C"
measured_parameter = "Ratio Ki"
reported_result = 0.5

[[record]]
molecule_smiles = "COC(=O)[C@@H]1C[C@H](OC(=O)c2ccccc2)C(=O)[C@H]2[C@@]1(C)CC[C@H]1C(=O)O[C@H](c3ccoc3)C[C@]21C"
measured_parameter = "Ratio Ki"
reported_result = 0.13

[[record]]
molecule_smiles = "COC(=O)[C@@H]1C[C@H](OC(=O)c2cccc(Br)c2)C(=O)[C@H]2[C@@]1(C)CC[C@H]1C(=O)O[C@H](c3ccoc3)C[C@]21C"
measured_parameter = "Ratio Ki"
reported_result = 1.6

[[record]]
molecule_smiles = "COC(=O)[C@@H]1C[C@H](NS(C)(=O)=O)C(=O)[C@H]2[C@@]1(C)CC[C@H]1C(=O)O[C@H](c3ccoc3)C[C@]21C"
measured_parameter = "Ratio Ki"
reported_result = "> 38"

[[record]]
molecule_smiles = "COC(=O)[C@@H]1C[C@H](OC(=O)c2ccccc2Br)C(=O)[C@H]2[C@@]1(C)CC[C@H]1C(=O)O[C@H](c3ccoc3)C[C@]21C"
measured_parameter = "Ratio Ki"
reported_result = 1.2


I have this compound here, `COC(=O)[C@@H]1C[C@H](OC(=O)c2ccc3ccccc3c2)C(=O)[C@H]2[C@@]1(C)CC[C@H]1C(=O)O[C@H](c3ccoc3)C[C@]21C` , and I need its recorded Ratio Ki.
0.03

Next record, please: `COC(=O)[C@@H]1C[C@H](NC(C)=O)C(=O)[C@H]2[C@@]1(C)CC[C@H]1C(=O)O[C@H](c3ccoc3)C[C@]21C`
13

---

Overview of reported Ratio Ki across a group of compounds:
Species on record: Homo sapiens
Experiment: Selectivity for human recombinant kappa opioid receptor over human recombinant delta opioid receptor

As a guide, the following entries are already answered.
[[record]]
molecule_smiles = "COC(=O)[C@@H]1C[C@H](NS(=O)(=O)c2ccccc2)C(=O)[C@H]2[C@@]1(C)CC[C@H]1C(=O)O[C@H](c3ccoc3)C[C@]21C"
reported_result = "> 7"

[[record]]
molecule_smiles = "COC(=O)[C@@H]1C[C@H](OC(=O)c2ccccc2Br)C(=O)[C@H]2[C@@]1(C)CC[C@H]1C(=O)O[C@H](c3ccoc3)C[C@]21C"
reported_result = "> 100"

[[record]]
molecule_smiles = "COC(=O)[C@@H]1C[C@H](NC(C)=O)C(=O)[C@H]2[C@@]1(C)CC[C@H]1C(=O)O[C@H](c3ccoc3)C[C@]21C"
reported_result = "> 330"

[[record]]
molecule_smiles = "COC(=O)[C@@H]1C[C@H](OC(=O)c2ccccc2[N+](=O)[O-])C(=O)[C@H]2[C@@]1(C)CC[C@H]1C(=O)O[C@H](c3ccoc3)C[C@]21C"
reported_result = "> 11"

[[record]]
molecule_smiles = "COC(=O)[C@@H]1C[C@H](OC(=O)C2CCCCC2)C(=O)[C@H]2[C@@]1(C)CC[C@H]1C(=O)O[C@H](c3ccoc3)C[C@]21C"
reported_result = "> 5"


Below: the item to evaluate.
Requested field: Ratio Ki. Item: `COC(=O)[C@@H]1C[C@H](OC(=O)c2cccc([N+](=O)[O-])c2)C(=O)[C@H]2[C@@]1(C)CC[C@H]1C(=O)O[C@H](c3ccoc3)C[C@]21C`
> 12

---

Biological target: Delta-type opioid receptor (Homo sapiens, UniProt P41143)
Sequence (P41143 whole entry): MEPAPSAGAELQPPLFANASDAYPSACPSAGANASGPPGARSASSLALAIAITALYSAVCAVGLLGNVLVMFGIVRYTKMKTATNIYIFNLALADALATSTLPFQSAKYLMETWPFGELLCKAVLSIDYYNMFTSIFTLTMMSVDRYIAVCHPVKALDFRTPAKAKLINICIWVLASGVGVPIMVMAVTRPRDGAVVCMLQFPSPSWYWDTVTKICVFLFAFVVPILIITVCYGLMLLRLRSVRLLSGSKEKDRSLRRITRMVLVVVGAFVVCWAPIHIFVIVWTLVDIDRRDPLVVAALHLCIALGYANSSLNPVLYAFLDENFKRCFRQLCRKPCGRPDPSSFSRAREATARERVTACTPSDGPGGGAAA
Test: Displacement of [125I]IOXY from human recombinant delta opioid receptor expressed in CHO cells
pKi: −log10 of the molar value.
pKi values for the compounds below.

Answered examples (2):
[[record]]
compound = "COC(=O)[C@@H]1C[C@H](OC(=O)c2cccc(OC)c2)C(=O)[C@H]2[C@@]1(C)CC[C@H]1C(=O)O[C@H](c3ccoc3)C[C@]21C"
target_or_system = "Delta-type opioid receptor (Homo sapiens, UniProt P41143)"
measured_parameter = "pKi"
reported_result = 5.94

[[record]]
compound = "COC(=O)[C@@H]1C[C@H](O)C(=O)[C@H]2[C@@]1(C)CC[C@H]1C(=O)O[C@H](c3ccoc3)C[C@]21C [SALVINORIN B]"
target_or_system = "Delta-type opioid receptor (Homo sapiens, UniProt P41143)"
measured_parameter = "pKi"
reported_result = "< 5.00"


# next compound below
Checklist item: pKi tested on Delta-type opioid receptor (Homo sapiens, UniProt P41143), entry `COC(=O)[C@@H]1C[C@H](NC(C)=O)C(=O)[C@H]2[C@@]1(C)CC[C@H]1C(=O)O[C@H](c3ccoc3)C[C@]21C` , value?
< 5.00

Just for reference, ChEMBL document CHEMBL1144846 is where these values come from.
